# System: Salmonella typhimurium strains TA 98, TA 100, TA 1535, TA 1537, TA 1538, TA 1978
# measurement protocol: Ames assay (spot test), revertant colonies
# Type: cell-based
# test parameters: strain TA 1535, -S9
Please respond with reported Mean number of revertant colonies per plate, TA 1535 -S9 for every item in the list.

Indicate the recorded Mean number of revertant colonies per plate, TA 1535 -S9 value for this compound: Clc1ccc(N2CC2c2ccccc2Cl)cc1 (stereo not shown) [Compound 11] 16.3 colonies per plate

Return Mean number of revertant colonies per plate, TA 1535 -S9 for the following compound: CC(=O)Nc1ccc2c(c1)Cc1ccccc1-2 [AAF, 2-acetylaminofluorene, reference compound] 15.7 colonies per plate

Look up and state reported Mean number of revertant colonies per plate, TA 1535 -S9 for Clc1ccc(N2CC2c2ccccc2Cl)cc1Cl (stereo not shown) [Compound 10] 25.0 colonies per plate

Provide Mean number of revertant colonies per plate, TA 1535 -S9 value for the following compound: Clc1ccccc1C1CN1c1ccc(Br)cc1 (stereo not shown) [Compound 1] 17.3 colonies per plate

###

# Test system: Salmonella typhimurium strains TA 98, TA 100, TA 1535, TA 1537, TA 1538, TA 1978
# measurement protocol: Ames assay (spot test), revertant colonies
# Type: cell-based
# test parameters: strain TA 100, -S9
test readout: Mean number of revertant colonies per plate, TA 100 -S9 (colonies per plate)
Reply with just the number (in colonies per plate).

State its Mean number of revertant colonies per plate, TA 100 -S9 for this compound: Clc1ccc(N2CC2c2ccccc2Cl)cc1Cl (stereo not shown) 26.3

Recall and state the measured Mean number of revertant colonies per plate, TA 100 -S9 for Clc1ccccc1C1CN1c1ccc(Br)cc1 (stereo not shown) . 25.3

Kindly indicate its recorded Mean number of revertant colonies per plate, TA 100 -S9. Item: CC(=O)Nc1ccc2c(c1)Cc1ccccc1-2 [AAF, 2-acetylaminofluorene, reference compound] 25.3

Indicate its recorded Mean number of revertant colonies per plate, TA 100 -S9; the compound in question is Clc1ccc(N2CC2c2ccccc2Cl)cc1 (stereo not shown) 28.0

###

# System: Salmonella typhimurium strains TA 98, TA 100, TA 1535, TA 1537, TA 1538, TA 1978
# measurement protocol: Ames assay (spot test), revertant colonies
# Type: cell-based
# test parameters: strain TA 1978, +S9
test readout: Mean number of revertant colonies per plate, TA 1978 +S9 (colonies per plate)
Express your answer in colonies per plate, writing the number without its unit.

Give reported Mean number of revertant colonies per plate, TA 1978 +S9 for Clc1ccc(N2CC2c2ccccc2Cl)cc1Cl (stereo not shown) (Salmonella typhimurium strains TA 98, TA 100, TA 1535, TA 1537, TA 1538, TA 1978) 202.0

Return reported Mean number of revertant colonies per plate, TA 1978 +S9 for target or system Salmonella typhimurium strains TA 98, TA 100, TA 1535, TA 1537, TA 1538, TA 1978, item Clc1ccc(N2CC2c2ccccc2Cl)cc1 (stereo not shown) . 196.0

Tell me Mean number of revertant colonies per plate, TA 1978 +S9 of Clc1ccccc1C1CN1c1ccc(Br)cc1 (stereo not shown) when tested on Salmonella typhimurium strains TA 98, TA 100, TA 1535, TA 1537, TA 1538, TA 1978. 189.0

# return Mean number of revertant colonies per plate, TA 1978 +S9 of CC(=O)Nc1ccc2c(c1)Cc1ccccc1-2 [AAF, 2-acetylaminofluorene, reference compound] (system: Salmonella typhimurium strains TA 98, TA 100, TA 1535, TA 1537, TA 1538, TA 1978) 358.3

###

# System: tobacco hornworm (Manduca sexta) larvae
# measurement protocol: Tobacco hornworm growth and developmental responses to feeding on diets containing the compounds
# Assay type: in vivo
# test parameters: 5 mM in diet
Flag rule - % Pupation less than 80% flags satisfied; the remaining entries get not satisfied.

Regarding Fc1ccc(N2CC2c2ccccc2F)cc1 (stereo not shown) , kindly confirm whether its % Pupation is beneath 80%. satisfied

Does the reported % Pupation of Clc1cccc(C2CN2c2ccc(Br)cc2)c1 (stereo not shown) stay below 80%? satisfied

Please indicate whether the reported % Pupation of Clc1ccc(C2CN2c2ccc(Br)cc2)cc1 (stereo not shown) is strictly below 80%. not satisfied

% Pupation under 80%? Item: O=[N+]([O-])c1ccccc1C1CN1c1ccc(Cl)c(Cl)c1 (stereo not shown) not satisfied

Field: below-cutoff. Rule: recorded % Pupation strictly less than 80%. Subject: Fc1ccc(N2CC2c2ccccc2Cl)cc1 (stereo not shown) satisfied

Is it true that % Pupation reported for O=[N+]([O-])c1cccc(N2CC2c2ccccc2[N+](=O)[O-])c1 (stereo not shown) is less than 80%? not satisfied

Just wondering, is % Pupation of c1ccc(C2CN2c2ccccc2)cc1 (stereo not shown) below 80%? not satisfied

Strictly below 80%: is that where % Pupation of Clc1ccccc1C1CN1c1ccccc1 (stereo not shown) sits? satisfied

Take the compound CCc1ccc(N2CC2c2ccccc2Cl)cc1 (stereo not shown) and say whether its % Pupation is less than 80%. not satisfied

A record lists Clc1cccc(N2CC2c2ccccc2Cl)c1 (stereo not shown) . Is its % Pupation below 80%? satisfied

# strict comparison: is reported % Pupation < 80%? input = Brc1ccc(N2CC2c2ccccc2)cc1 (stereo not shown) satisfied

For O=[N+]([O-])c1cccc(C2CN2c2ccccc2)c1 (stereo not shown) , is the recorded % Pupation below the cut-off of 80%? not satisfied

###

Kindly state Mean number of revertant colonies per plate, TA 98 -S9 for each of the entries shown.
# Tested on: Salmonella typhimurium strains TA 98, TA 100, TA 1535, TA 1537, TA 1538, TA 1978
# measurement protocol: Ames assay (spot test), revertant colonies
# Assay type: cell-based
# test parameters: strain TA 98, -S9
Return type: number; implicit unit colonies per plate.

Quote Salmonella typhimurium strains TA 98, TA 100, TA 1535, TA 1537, TA 1538, TA 1978 Mean number of revertant colonies per plate, TA 98 -S9 for entry Clc1ccc(N2CC2c2ccccc2Cl)cc1Cl (stereo not shown) . 26.7

# return Mean number of revertant colonies per plate, TA 98 -S9 for CC(=O)Nc1ccc2c(c1)Cc1ccccc1-2 [AAF, 2-acetylaminofluorene, reference compound] , test system: Salmonella typhimurium strains TA 98, TA 100, TA 1535, TA 1537, TA 1538, TA 1978 32.7

Quote Salmonella typhimurium strains TA 98, TA 100, TA 1535, TA 1537, TA 1538, TA 1978 Mean number of revertant colonies per plate, TA 98 -S9 for entry Clc1ccccc1C1CN1c1ccc(Br)cc1 (stereo not shown) . 32.7

Find Mean number of revertant colonies per plate, TA 98 -S9 for Clc1ccc(N2CC2c2ccccc2Cl)cc1 (stereo not shown) on Salmonella typhimurium strains TA 98, TA 100, TA 1535, TA 1537, TA 1538, TA 1978 and write it down. 27.3

###

# measurement protocol: Acute oral toxicity test using the rat
# test parameters: in vivo
test readout: LD50

Output measured LD50 for this item: Clc1ccc(N2CC2c2ccccc2Cl)cc1Cl (stereo not shown) [Compound 10] > 2000 mg/kg

###

# Tested on: tobacco hornworm (Manduca sexta) larvae
# measurement protocol: Tobacco hornworm growth and developmental responses to feeding on diets containing the compounds
# Format: in vivo
# test parameters: 5 mM in diet
Task for the reader: assign each of the following compounds its reported Mean No. of Eggs.

Determine its reported Mean No. of Eggs: O=[N+]([O-])c1cccc(C2CN2c2ccccc2)c1 (stereo not drawn) 67 ± 16

Assign Mean No. of Eggs to the following record: O=[N+]([O-])c1ccccc1C1CN1c1ccc(Cl)c(Cl)c1 (stereo not drawn) 83 ± 29

Assign Mean No. of Eggs to the following record: Clc1ccc(C2CN2c2ccc(Br)cc2)cc1 (stereo not drawn) 74 ± 14

Supply measured Mean No. of Eggs of Clc1ccccc1C1CN1c1ccccc1 (stereo not drawn) in your reply. 14 ± 17

Give Mean No. of Eggs for Clc1cccc(N2CC2c2ccccc2Cl)c1 (stereo not drawn) 8 ± 11

Fill in Mean No. of Eggs for record Clc1ccc(N2CC2c2ccccc2Cl)cc1Cl (stereo not drawn) 55 ± 0

Return Mean No. of Eggs for the following compound: Fc1ccc(N2CC2c2ccccc2F)cc1 (stereo not drawn) 67 ± 42

Indicate its recorded Mean No. of Eggs; the compound in question is CCc1ccc(N2CC2c2ccccc2Cl)cc1 (stereo not drawn) 44

Answer with the recorded Mean No. of Eggs for the compound listed here: Clc1cccc(C2CN2c2ccc(Br)cc2)c1 (stereo not drawn) 1 ± 0

Could you please provide reported Mean No. of Eggs for O=[N+]([O-])c1cccc(N2CC2c2ccccc2[N+](=O)[O-])c1 (stereo not drawn) ? Thanks! 97 ± 14

Name the recorded Mean No. of Eggs of the compound listed here: Brc1ccc(N2CC2c2ccccc2)cc1 (stereo not drawn) 7 ± 5

In one line, give reported Mean No. of Eggs of the entry c1ccc(C2CN2c2ccccc2)cc1 (stereo not drawn) . 79 ± 19

###

# Tested on: Salmonella typhimurium strains TA 98, TA 100, TA 1535, TA 1537, TA 1538, TA 1978
# measurement protocol: Ames assay (spot test), revertant colonies
# Format: cell-based
# test parameters: strain TA 1537, +S9
test readout: Mean number of revertant colonies per plate, TA 1537 +S9 (colonies per plate)
Express your answer in colonies per plate, writing the number without its unit.

Give Mean number of revertant colonies per plate, TA 1537 +S9 for CC(=O)Nc1ccc2c(c1)Cc1ccccc1-2 [AAF, 2-acetylaminofluorene, reference compound] 14.7

Specify measured Mean number of revertant colonies per plate, TA 1537 +S9 for Clc1ccccc1C1CN1c1ccc(Br)cc1 (stereo not shown) . 13.3

State its Mean number of revertant colonies per plate, TA 1537 +S9: Clc1ccc(N2CC2c2ccccc2Cl)cc1 (stereo not shown) 13.7

Quickly give me recorded Mean number of revertant colonies per plate, TA 1537 +S9 for Clc1ccc(N2CC2c2ccccc2Cl)cc1Cl (stereo not shown) 13.7
